Each recorded value in this set is attributed to paper PMC10138714.

test system: rats; test: Heart rate and ECG intervals in rats; assay type: in vivo, male Wistar rats; conditions: 10 mg/kg i.p., time 15 min
PQ: recorded values

- Compound: "CCC(=O)c1ccc(OCCCCCCCCN2CCN(c3ccncc3)CC2)cc1 [KSK-74]"
  Unit text: "ms"
  PQ: 53.8
- Compound: "c1ccc(-c2ccc(OCCCN3CCN(c4ccncc4)CC3)cc2)cc1 [KSK-61]"
  Unit text: "ms"
  PQ: 52.8
- Compound: "O=C(c1ccccc1)c1ccc(OCCCN2CCN(c3ccncc3)CC2)cc1 [KSK-63]"
  Unit text: "ms"
  PQ: 55.0
- Compound: "CC(=O)c1ccc(OCCCCCCCCN2CCN(c3ccncc3)CC2)cc1 [KSK-73]"
  Unit text: "ms"
  PQ: 51.3
